# SYSTEM_UNDER_TEST: Recombinant IKKα (Homo sapiens)
# Construct: purchased Millipore, Dundee, UK
# Sequence (O15111 1-745): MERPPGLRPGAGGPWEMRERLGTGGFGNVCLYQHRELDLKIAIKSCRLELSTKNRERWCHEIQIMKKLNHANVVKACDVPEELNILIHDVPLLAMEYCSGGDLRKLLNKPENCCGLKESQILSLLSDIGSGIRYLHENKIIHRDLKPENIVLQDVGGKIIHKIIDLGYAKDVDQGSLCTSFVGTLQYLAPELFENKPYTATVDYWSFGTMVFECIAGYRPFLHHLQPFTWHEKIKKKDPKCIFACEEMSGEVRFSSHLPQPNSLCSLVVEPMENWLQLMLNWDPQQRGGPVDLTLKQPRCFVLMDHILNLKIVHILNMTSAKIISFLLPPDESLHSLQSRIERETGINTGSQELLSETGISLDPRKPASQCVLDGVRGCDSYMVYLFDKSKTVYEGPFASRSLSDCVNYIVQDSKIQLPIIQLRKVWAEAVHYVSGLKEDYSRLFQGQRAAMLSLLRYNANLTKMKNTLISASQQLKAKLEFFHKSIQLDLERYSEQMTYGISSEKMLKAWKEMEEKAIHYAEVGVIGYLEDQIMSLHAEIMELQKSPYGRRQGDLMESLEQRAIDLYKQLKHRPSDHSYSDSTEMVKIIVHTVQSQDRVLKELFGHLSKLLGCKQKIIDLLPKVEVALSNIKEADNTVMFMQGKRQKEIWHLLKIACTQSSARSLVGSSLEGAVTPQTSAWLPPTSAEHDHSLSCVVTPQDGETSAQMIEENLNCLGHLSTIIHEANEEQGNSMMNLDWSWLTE
# ASSAY_INFO: DELFIA IKKα kinase assay (apparent Ki, Cheng-Prusoff)
# Assay type: biochemical
# SETTINGS: DELFIA assay (first line of an example)
# Procedure: IKKα and IKKβ inhibitory activity was determined using three different assays: a dissociation enhanced ligand fluorescent immunoassay (DELFIA) based on the protocol of HTScan™ IKKβ Kinase Assay (Cell Signaling Technology, USA); an Adapta IKKα assay (performed by Life Technologies); a Z′-LYTE™ IKKβ assay (performed by Life Technologies). […]
pKi: −log10 of the molar value.
MEASURED_ATTRIBUTE: pKi

Use these answered entries as a reference point.
ITEM_SMILES: Nc1n[nH]c2ccc(-c3ccnc4[nH]c(CCCN5CCOCC5)cc34)cc12
MEASURED_ATTRIBUTE: pKi
QUANTITATIVE_READOUT: 7.96
--
ITEM_SMILES: Nc1n[nH]c2ccc(-c3ccnc4[nH]c(CC5CCCCC5)cc34)cc12
MEASURED_ATTRIBUTE: pKi
QUANTITATIVE_READOUT: 7.42

[a] CC(C)(C)C#Cc1cc(-c2ccnc(Nc3nc(C(F)(F)F)co3)c2)cc2c(N)n[nH]c12
[b] Nc1n[nH]c2c(C#CCCCCN3CCCCC3)cc(-c3ccnc4[nH]ccc34)cc12
[c] COC(=O)Nc1cc(-c2cc(C#CC(C)(C)C)c3[nH]nc(N)c3c2)ccn1
# rank_down: sort by pKi, max first Put the labels in the order asked and list them. c, b, a
(c: 7.92, b: 7.40, a: 6.47)

* * *

# SYSTEM_UNDER_TEST: Recombinant IKKα (Homo sapiens, UniProt O15111)
# Construct: purchased Millipore, Dundee, UK
# ASSAY_INFO: DELFIA IKKα kinase assay (apparent Ki, Cheng-Prusoff)
# Format: biochemical
# SETTINGS: non-italicised figure: DELFIA assay
MEASURED_ATTRIBUTE: Ki (nM)

Worked examples follow.
COMPOUND: Nc1n[nH]c2ccc(-c3ccnc(NCCCO)c3)cc12 [Example 21]
OUTPUT_UNIT: nM
Ki: 15
//
COMPOUND: CC(=O)Nc1cc(-c2cc(C#Cc3ccccc3)c3[nH]nc(N)c3c2)ccn1 [Example 178]
OUTPUT_UNIT: nM
Ki: 22
//
COMPOUND: CC(C)(C)C#Cc1cc(-c2ccnc(NC(=O)C3CCC3)c2)cc2c(N)n[nH]c12 [Example 172]
OUTPUT_UNIT: nM
Ki: 89
//
COMPOUND: CC(C)(C)C#Cc1cc(-c2cc(N)ncc2F)cc2c(N)n[nH]c12 [Example 148]
OUTPUT_UNIT: nM
Ki: 23
//
COMPOUND: Nc1cc(-c2cc(-c3cccc(S(N)(=O)=O)c3)c3[nH]nc(N)c3c2)ccn1 [Example 114]
OUTPUT_UNIT: nM
Ki: 7

[a] Nc1n[nH]c2ccc(-c3ccnc(NCCCCCO)c3)cc12 [Example 23]
[b] CC(C)(C)C#Cc1cc(-c2ccnc(NCCC#N)c2)cc2c(N)n[nH]c12 [Example 159]
Could you tell me which of these two has the smaller Ki figure? First: a Second: b I would appreciate it if you answered with the label of your choice. b

[1] Nc1cc(-c2cc(C#CC3CCOCC3)c3[nH]nc(N)c3c2)ccn1 [Example 142]
[2] Nc1n[nH]c2ccc(-c3ccnc4[nH]c(C(=O)O)cc34)cc12 [Example 10]
Choose between 1 and 2 : whose measured Ki value is numerically larger? Pick one and reply with its label. 1

The values you see were collected from patent US20250304576A1.
